Taken from ChEMBL document CHEMBL4004866.

# assay.text: Cytotoxicity against human HPC after 48 hrs by MTT assay
# Format: cell-based
# condition.notes: HPC cells
outcome.measure: CC50 at 48 h (µM)

1) N[C@@H](Cc1ccc(N(CCCl)CCCl)cc1)C(=O)O [MELPHALAN] ... 37
2) O=C1/C(=C/c2ccccc2)CCC/C1=C\c1ccc(OC(=O)c2cccnc2)cc1 ... 142
3) O=C1/C(=C/c2ccc(Cl)cc2)CCC/C1=C\c1ccc(OC(=O)c2cccnc2)cc1 ... 179

----------
# assay.text: Selectivity index, ratio of CC50 for HGF to CC50 for human HSC2 cells
# condition.notes: pooled result: one value given for 3 cell lines, strains, targets or settings
outcome.measure: Selectivity Index

1) O=C1/C(=C/c2ccc(OC(=O)c3cccnc3)cc2)CCC/C1=C\c1ccc([N+](=O)[O-])cc1 ... >1.79
2) O=C(O)c1cccnc1 ... 1
3) O=C1/C(=C/c2ccc(Cl)cc2)CCC/C1=C\c1ccc(OC(=O)c2cccnc2)cc1 ... 5.71
4) Cc1ccc(/C=C2\CCC/C(=C\c3ccc(OC(=O)c4cccnc4)cc3)C2=O)cc1 ... >2.02
5) COc1ccc(/C=C2\CCC/C(=C\c3ccc(OC(=O)c4cccnc4)cc3)C2=O)cc1 ... >6.6
6) O=C1/C(=C/c2ccccc2)CCC/C1=C\c1ccc(OC(=O)c2cccnc2)cc1 ... 8.48
7) N[C@@H](Cc1ccc(N(CCCl)CCCl)cc1)C(=O)O ... 5.61

----------
# assay.text: Cytotoxicity against HGF after 48 hrs by MTT assay
# Type: cell-based
# condition.notes: human, HGF cells
CC50 at 48 h listing for selected compounds.
outcome.measure: CC50 at 48 h

1) O=C1/C(=C/c2ccc(Cl)cc2)CCC/C1=C\c1ccc(OC(=O)c2cccnc2)cc1 ... 190 µM
2) O=C(O)c1cccnc1 ... > 200 µM
3) O=C1/C(=C/c2ccc(OC(=O)c3cccnc3)cc2)CCC/C1=C\c1ccc([N+](=O)[O-])cc1 ... > 200 µM
4) COc1ccc(/C=C2\CCC/C(=C\c3ccc(OC(=O)c4cccnc4)cc3)C2=O)cc1 ... > 200 µM
5) Cc1ccc(/C=C2\CCC/C(=C\c3ccc(OC(=O)c4cccnc4)cc3)C2=O)cc1 ... 184 µM
6) O=C1/C(=C/c2ccccc2)CCC/C1=C\c1ccc(OC(=O)c2cccnc2)cc1 ... 116 µM
7) N[C@@H](Cc1ccc(N(CCCl)CCCl)cc1)C(=O)O ... 73 µM

----------
Measured CC50 at 48 h of individual entries
# assay.text: Cytotoxicity against HPLF after 48 hrs by MTT assay
# Assay type: cell-based
# condition.notes: human, HPLF cells
outcome.measure: CC50 at 48 h (µM)

1. O=C1/C(=C/c2ccccc2)CCC/C1=C\c1ccc(OC(=O)c2cccnc2)cc1 ... 60
2. Cc1ccc(/C=C2\CCC/C(=C\c3ccc(OC(=O)c4cccnc4)cc3)C2=O)cc1 ... 163
3. O=C1/C(=C/c2ccc(Cl)cc2)CCC/C1=C\c1ccc(OC(=O)c2cccnc2)cc1 ... 154
4. N[C@@H](Cc1ccc(N(CCCl)CCCl)cc1)C(=O)O ... 92

----------
# assay.text: Selectivity index, ratio of CC50 for HGF to CC50 for human HL60 cells
# condition.notes: pooled result: one value given for 3 cell lines, strains, targets or settings
outcome.measure: Selectivity Index

1. O=C1/C(=C/c2ccc(OC(=O)c3cccnc3)cc2)CCC/C1=C\c1ccc([N+](=O)[O-])cc1 ... 1
2. O=C(O)c1cccnc1 [NIACIN] ... 1
3. O=C1/C(=C/c2ccc(Cl)cc2)CCC/C1=C\c1ccc(OC(=O)c2cccnc2)cc1 ... 16.6
4. O=C1/C(=C/c2ccccc2)CCC/C1=C\c1ccc(OC(=O)c2cccnc2)cc1 ... 70.7
5. N[C@@H](Cc1ccc(N(CCCl)CCCl)cc1)C(=O)O [MELPHALAN] ... 75.6
